Tested on: PC-12
Assay details: Neuroprotective activity against Abeta25-35-induced […] cells assessed as cell viability at 1 uM preincubated for 2 hrs prior Abeta25-35 challenge measured after 24 hrs by MTT assay
Format: functional
Condition parameters: Rattus norvegicus
Active and inactive are the calls of the source. The rule behind the calls is not given here.
Assay readout: Activity

C[C@]12CC[C@H]3[C@@H](CC=C4C[C@@H](O)CC[C@@]43C)[C@@H]1CC[C@@H]2C(=O)/C=C/c1ccccc1; inactive
C[C@]12CC[C@H]3[C@@H](CC=C4C[C@@H](O)CC[C@@]43C)[C@@H]1CC[C@@H]2C(=O)/C=C/c1ccc(F)cc1; inactive
Cc1ccccc1/C=C/C(=O)[C@H]1CC[C@H]2[C@@H]3CC=C4C[C@@H](O)CC[C@]4(C)[C@H]3CC[C@]12C; inactive
C[C@]12CC[C@H]3[C@@H](C[C@@H]4O[C@@]45C[C@@H](O)CC[C@]35C)[C@@H]1CC[C@@H]2C(=O)/C=C/c1ccccn1; inactive
C[C@]12CC[C@H]3[C@@H](C[C@@H]4O[C@@]45C[C@@H](O)CC[C@]35C)[C@@H]1CC[C@@H]2C(=O)/C=C/c1ccc(F)cc1; inactive

Kindly consider the entry below.
Fetch value of Activity on PC-12 for C[C@]12CC[C@H]3[C@@H](C[C@@H]4O[C@@]45C[C@@H](O)CC[C@]35C)[C@@H]1CC[C@@H]2C(=O)/C=C/c1ccc(Cl)cc1 .
inactive
